# System: HCC-2998 colon
# test: NCI tumour cell line growth inhibition, 48 h
Please respond with reported TGI for every item in the list.

molecule: N#C/C(N)=C(\C#N)NC=NCCO
subjectOfTest: HCC-2998 colon
recordedValue: > 100 µM

Dear colleague, could you please provide TGI for the molecules listed below?
1. NC(N)=NS(=O)(=O)c1ccc(N=Nc2c(O)c(C(=O)O)cc3ccccc23)cc1
2. O=C1c2cc3c(cc2CC12Cc1ccc4c(c1C2=O)CCC4)CCCC3 (configuration not stated)
3. CCOc1ccc(NC2=CC(=O)C(=O)c3ccccc32)cc1
4. CC(C)(C)[Si](C)(C)OC1[C@@H](O[Si](C)(C)C(C)(C)C)[C@@H](CNC(=O)NC(=O)C(F)(F)F)O[C@H]1n1cnc2c(NC(=O)Nc3ccccc3)ncnc21 (some centres not stated)

1. > 100 µM
2. > 100 µM
3. 26 µM
4. 10.6 µM

---

# Test system: RPMI-8226 leukemia
# test: NCI tumour cell line growth inhibition, 48 h
Please provide measured GI50 for the entries that follow.

compound: COc1cc2c(cc1OC)-c1cc(OC)c(OC)cc1C(CN(C)C)C2 (stereo not given)
recordedValue: > 10 µM

# batch: return GI50 for each of the 4 compounds below
1. COc1c2ccccc2c(OC)c2[nH]c(=O)ccc12
2. C=C1C(=O)O[C@H]2[C@H]1CC/C(CNC(=O)c1cc3ccccc3[nH]1)=C\CC[C@@]1(C)O[C@@H]21
3. COc1ccc(C(c2cc(OC)c(OC)c(OC)c2)n2cncn2)cc1O (stereo not given)
4. O=[N+]([O-])c1cc([N+](=O)[O-])c(C(F)(F)F)cc1NN=C(c1ccc(O)cc1)c1ccc(O)cc1

["12.6 µM", "1.02 µM", "0.452 µM", "3.71 µM"]

---

# Test system: OVCAR-3 ovarian
# test: NCI tumour cell line growth inhibition, 48 h; in the data active = GI50 below about 0.43 µM; inactive = the rest
Pick one: 1 for active, 0 for inactive

Worked cases, answers included:
compound: COc1c2ccccc2c(OC)c2[nH]c(=O)ccc12
category: 0
//
compound: COC(=O)/C=C/c1cc(OC(C)=O)c2c(c1)[C@@H](C(=O)OC)[C@H](c1ccc(OC(C)=O)c(OC(C)=O)c1)O2
category: 1
//
compound: COc1cc2c(cc1OC)-c1cc(OC)c(OC)cc1C(CN(C)C)C2 (centres undefined)
category: 0
//
compound: CC[C@@H](c1ccc(O)c(O)c1)[C@@H](CC)c1ccc(O)c(O)c1
category: 0
//
compound: O=C1c2c(F)c(F)c(F)c(F)c2C(=O)N1c1ccc(F)cc1F
category: 0
//
compound: CCOC(=O)n1cc(C2=C(c3ccc(OC)c(OC)c3)COC2=O)c2ccccc21
category: 1

Which outcome did this test record for the compound COC(=O)c1cc2oc(/C=C3/SC(=S)N(NC(C)=O)C3=O)cc2n1C ?
0

Can you look up the reported call for CCCCCCCCCCSC(=N)N (tested in a mixture with another compound) for me?
0

Name the outcome recorded for CC(=O)N[C@@H](Cc1ccc(OP(=O)(O)O)cc1)C(=O)N[C@H]1CCC(=O)N2CCC[C@@H](C(=O)Nc3cccc4ccccc34)N2C1=O in the assay.
0

---

# Tested on: ACHN renal
# test: NCI tumour cell line growth inhibition, 48 h
observationType: TGI

Some solved cases for reference:
molecule: O=C1/C(=C/c2ccco2)NC(=S)N1CN1CCCCC1
TGI: > 100 µM
--
molecule: N#CSC#CCCC#CSC#N
TGI: 31.4 µM
--
molecule: c1ccc(Nc2ncc(-c3ccccc3)o2)cc1
TGI: > 25 µM
--
molecule: O=C(O)CSc1n[nH]c(-c2ccccc2O)n1
TGI: > 100 µM
--
molecule: CCNC(=O)C#Cc1ccc2c(C(=Nc3ccc(CN(C)C)cc3)c3ccccc3)c(O)[nH]c2c1
TGI: 2.58 µM

Please go through the list and note TGI for each molecule.
1. COc1cc(S(=O)(=O)Nc2ccc(-c3csc(N4C(=O)CSC4c4cccc(Oc5ccccc5)c4)n3)cc2)ccc1Cl (configuration not stated)
2. CCCCCCCCCCSC(=N)N (tested in a mixture with another compound)
3. COc1ccc(C2=CC(C(C)=C(C(N)=O)C(N)=O)C=C(c3ccc(Br)cc3)C2)c(OC)c1 (configuration not stated)
4. COC(=O)CC(C)(NS(=O)c1ccc(C)cc1)c1ccccc1 (configuration not stated)
5. Cn1cc(-c2cc3c(N4CCN(c5ncc([C@@](C)(N)c6ccc(F)cc6)cn5)CC4)ncnn3c2)cn1

1. > 100 µM
2. 10.1 µM
3. > 100 µM
4. > 100 µM
5. > 100 µM

Provide reported TGI for each item, in the same order as listed.
1. CC#Cc1ccc(-c2ccccc2)s1
2. c1ccc(-c2n(Cc3ccc4ccccc4n3)cc[n+]2Cc2ccc3ccccc3c2)cc1

1: > 100 µM; 2: 11.4 µM
